Origin of the recorded values: PubChem BioAssay (NCI)

# Tested on: MDA-MB-435 melanoma
# measurement.protocol: NCI-60 one-dose screen, 48 h (100 = growth as untreated, 0 = no growth, -100 = all killed)
# cond: 10 µM unless noted
This is part of a sample that, as a whole, favours compounds with a hit. Of some 83,000 tested, about 20% had one in any assay.
growth of 30% or higher: class 1. Under 30%: class 0.

1. COc1cc2c3c(c4c5ccccc5[nH]c4c2c(OC)c1OC)C(=O)N(CCN1CCCCC1)C3=O: class 1
2. Cc1nc([P+](c2ccccc2)(c2ccccc2)c2ccccc2)c(N2CCCCC2)o1: class 0
3. CCOc1ccc(/C=C/C(=O)c2cccc(OCCCOc3cccc(C(=O)/C=C/c4ccc(OCC)cc4)c3)c2)cc1: class 1
4. Cc1ccc(S(=O)(=O)OC[C@]23CCC(C)(C)C[C@H]2C2=CC[C@@H]4[C@@]5(C)CCCNC(C)(C)[C@@H]5CC[C@@]4(C)[C@]2(C)CC3)cc1: class 1
5. O=C1/C(=C/c2c[nH]c(=O)[nH]c2=O)SC(=S)N1Cc1ccccc1: class 1
6. CC1=C2CC/C(C)=C/CC[C@]3(C)O[C@H]3CC/C(C)=C/[C@H]2OC1: class 1
7. Nc1c(C(=O)Nc2cccc3ncccc23)sc2nc3c(cc12)CN(Cc1ccccc1)CC3: class 0
8. CC(=O)c1ccc(-n2cc(CN3CCN(c4cc5c(cc4F)c(=O)c(C(=O)O)cn5C4CC4)CC3)nn2)cc1: class 1
